# Tested on: A498 (Renal Cancer)
# Protocol details: NCI one dose, A498
# Type: cell-based, human
# Protocol conditions: A498, 1.00E-5 Molar one dose
Value kind: Growth Percent (%)

molecule="COc1ccc(CNC(=O)[C@@H]2CS[C@H]3c4ccccc4C(=O)N23)cc1 [4aF]" study_target="A498 (Renal Cancer)" value_measured=105.77
molecule="C[C@@]12SC[C@@H](C(=O)NCc3ccc(Cl)cc3Cl)N1C(=O)c1ccccc12 [4bH]" study_target="A498 (Renal Cancer)" value_measured=77.10
molecule="C[C@@]12SC[C@@H](C(=O)NCc3ccccc3Br)N1C(=O)c1ccccc12 [4bB]" study_target="A498 (Renal Cancer)" value_measured=75.85
molecule="COc1ccc(CNC(=O)[C@@H]2CS[C@@]3(C)c4ccccc4C(=O)N23)cc1 [4bF]" study_target="A498 (Renal Cancer)" value_measured=96.46
molecule="C[C@@]12SC[C@@H](C(=O)NCc3ccccc3)N1C(=O)c1ccccc12 [4bA]" study_target="A498 (Renal Cancer)" value_measured=91.48
molecule="COc1cc(CNC(=O)[C@@H]2CS[C@H]3c4ccccc4C(=O)N23)cc(OC)c1OC [4aJ]" study_target="A498 (Renal Cancer)" value_measured=100.74
molecule="COc1ccccc1CNC(=O)[C@@H]1CS[C@@]2(C)c3ccccc3C(=O)N12 [4bG]" study_target="A498 (Renal Cancer)" value_measured=93.00
molecule="COc1cccc(CNC(=O)[C@@H]2CS[C@@]3(C)c4ccccc4C(=O)N23)c1 [4bE]" study_target="A498 (Renal Cancer)" value_measured=85.49
molecule="O=C(NCc1ccc(Cl)cc1Cl)[C@@H]1CS[C@H]2c3ccccc3C(=O)N12 [4aH]" study_target="A498 (Renal Cancer)" value_measured=101.60

###

Parameter Growth Percent: see the listing below.
# Tested on: SN12C (Renal Cancer)
# Protocol details: NCI one dose, SN12C
# Format: cell-based, human
# Protocol conditions: 1.00E-5 Molar one dose
Value kind: Growth Percent

compound="COc1ccc(CNC(=O)[C@@H]2CS[C@H]3c4ccccc4C(=O)N23)cc1OC [4aI]" value_measured=100.89%
compound="COc1ccc(CNC(=O)[C@@H]2CS[C@@]3(C)c4ccccc4C(=O)N23)cc1OC [4bI]" value_measured=96.04%
compound="COc1cccc(CNC(=O)[C@@H]2CS[C@@]3(C)c4ccccc4C(=O)N23)c1 [4bE]" value_measured=101.62%

###

# System: CCRF-CEM (Leukemia)
# Protocol details: NCI one dose, CCRF-CEM
# Format: cell-based, human
# Protocol conditions: 1.00E-5 Molar one dose
Value kind: Growth Percent (%)

compound="C[C@@]12SC[C@@H](C(=O)NCc3ccccc3C(F)(F)F)N1C(=O)c1ccccc12 [4bC]" value_kind="Growth Percent" value_measured=88.01
compound="C[C@@]12SC[C@@H](C(=O)NCc3ccc(Cl)cc3Cl)N1C(=O)c1ccccc12 [4bH]" value_kind="Growth Percent" value_measured=84.65
compound="C[C@@]12SC[C@@H](C(=O)NCc3cccc(C(F)(F)F)c3)N1C(=O)c1ccccc12 [4bD]" value_kind="Growth Percent" value_measured=89.45
compound="C[C@@]12SC[C@@H](C(=O)NCc3ccccc3)N1C(=O)c1ccccc12 [4bA]" value_kind="Growth Percent" value_measured=95.36
compound="COc1ccccc1CNC(=O)[C@@H]1CS[C@@]2(C)c3ccccc3C(=O)N12 [4bG]" value_kind="Growth Percent" value_measured=98.16
compound="COc1cc(CNC(=O)[C@@H]2CS[C@H]3c4ccccc4C(=O)N23)cc(OC)c1OC [4aJ]" value_kind="Growth Percent" value_measured=96.01
compound="COc1ccc(CNC(=O)[C@@H]2CS[C@H]3c4ccccc4C(=O)N23)cc1OC [4aI]" value_kind="Growth Percent" value_measured=94.08
compound="COc1cc(CNC(=O)[C@@H]2CS[C@@]3(C)c4ccccc4C(=O)N23)cc(OC)c1OC [4bJ]" value_kind="Growth Percent" value_measured=90.73
compound="O=C(NCc1ccccc1)[C@@H]1CS[C@H]2c3ccccc3C(=O)N12 [4aA]" value_kind="Growth Percent" value_measured=96.52
